# SUBJECT OF TEST: Bcl-xL, Q07817
# Sequence (Q07817 1-209): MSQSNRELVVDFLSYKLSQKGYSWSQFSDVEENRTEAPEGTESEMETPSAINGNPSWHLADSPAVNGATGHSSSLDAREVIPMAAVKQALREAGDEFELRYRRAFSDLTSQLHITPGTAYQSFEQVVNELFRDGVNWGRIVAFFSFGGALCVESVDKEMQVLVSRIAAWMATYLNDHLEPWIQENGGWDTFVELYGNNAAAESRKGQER
# EXPERIMENT NOTES: peptide SPOT array, c-Myc-tagged receptor at 1 uM or 100 nM, anti-c-Myc-Cy3
ENDPOINT NAME: SPOT signal as a fraction of Bim BH3's signal on the same receptor and array

Completed entries (count: 4):
binder="TDENKKVGLADKDLAKQYSDRLECCE [NUB1]" readout_value=0.02
binder="EMNLQDHIESISKVAEVAGKEYAIEQ [DNAH1]" readout_value=0.02
binder="ERAISCMGQIDCNLGDNLGSDLPNTL [CAND1]" readout_value=0.01
binder="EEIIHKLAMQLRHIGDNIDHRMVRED [PXT1]" readout_value=0.26

(a) TGSLCEIATTLSFEGDGFLWVKSGSV [CRB1]
(b) MRPEIWIAQEDRRIGDEFNAYYARRV [BCL2L11]
Return label of the item with the larger SPOT signal as a fraction of Bim BH3's signal on the same receptor and array. Candidates: a , b . Respond with the label that goes with your answer.
b

(A) WTLFVYTKGNFRMIGDDLVNSYHLLL [RBL1]
(B) RAIPIKQGILLKRSGKSLNKEWKKKY [AGAP3]
(C) TPSRSALSSELSLVLDTTGDTLEKFV [CREBBP]
(D) TNISWRACDHLRCIACDFLVVSYDDY [C8orf37]
Order the items by recorded SPOT signal as a fraction of Bim BH3's signal on the same receptor and array; the first position goes to the largest value. Dear reader, please state the labels in the requested order.
B, A, D, C
(B: 1.42, A: 0.13, D: 0.08, C: 0.02)
